The origin of these recorded values is patent USRE47193E1.

# tested_on: mouse TLR7 (Mus musculus, UniProt P58681)
# Sequence (P58681 27-1050): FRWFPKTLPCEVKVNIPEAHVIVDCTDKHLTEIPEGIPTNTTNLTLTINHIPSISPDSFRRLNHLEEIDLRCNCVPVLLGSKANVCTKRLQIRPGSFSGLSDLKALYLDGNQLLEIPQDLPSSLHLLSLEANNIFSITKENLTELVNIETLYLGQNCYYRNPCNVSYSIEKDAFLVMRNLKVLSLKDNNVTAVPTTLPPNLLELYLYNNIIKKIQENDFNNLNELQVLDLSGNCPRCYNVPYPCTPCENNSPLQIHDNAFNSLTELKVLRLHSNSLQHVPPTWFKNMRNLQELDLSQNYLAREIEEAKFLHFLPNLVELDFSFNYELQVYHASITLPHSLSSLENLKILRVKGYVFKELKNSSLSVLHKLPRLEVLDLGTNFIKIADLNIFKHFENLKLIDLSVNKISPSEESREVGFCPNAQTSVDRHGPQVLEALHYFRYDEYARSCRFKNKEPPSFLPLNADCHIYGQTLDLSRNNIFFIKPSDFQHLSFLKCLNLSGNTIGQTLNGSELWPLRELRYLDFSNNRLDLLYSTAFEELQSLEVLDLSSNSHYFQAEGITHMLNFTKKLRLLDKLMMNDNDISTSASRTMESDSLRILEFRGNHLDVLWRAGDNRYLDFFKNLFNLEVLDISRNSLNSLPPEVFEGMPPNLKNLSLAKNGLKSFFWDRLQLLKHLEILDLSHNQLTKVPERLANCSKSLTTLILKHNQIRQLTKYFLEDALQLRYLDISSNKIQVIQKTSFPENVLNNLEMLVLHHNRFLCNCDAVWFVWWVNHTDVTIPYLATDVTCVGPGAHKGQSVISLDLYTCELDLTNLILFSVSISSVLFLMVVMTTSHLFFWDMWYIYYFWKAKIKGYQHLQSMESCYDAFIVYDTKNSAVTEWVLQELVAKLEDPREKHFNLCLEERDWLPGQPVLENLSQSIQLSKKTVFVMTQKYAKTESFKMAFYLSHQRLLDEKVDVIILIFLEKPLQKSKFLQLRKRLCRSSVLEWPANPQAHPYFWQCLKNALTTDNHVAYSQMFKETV
# experimental_protocol: Short-term in vivo (STIV) assay: oral dosing, R848 s.c., plasma IL-6
# Set-up: female BALB/c mice (Jackson Labs, Bar Harbor, Me.) were dosed by oral gavage; tissue Jackson Labs; host or cells: living female BALB/c mice; plasma IL-6 after s.c. R848
# test_conditions: 3 h; 300 mg/kg
quantity_name: % Suppression vs. Vehicle (%)
// return numeric value only (unit: %, not printed)

Would you please look over these solved cases?
{"molecule": "CC1CN(c2ccc(C#N)c3ncccc23)CC(CN2CCC(N(C)C)CC2)O1 (stereo not shown) [ER-887725]", "% Suppression vs. Vehicle [%]": 99}
{"molecule": "CCCN1CCN(C[C@H]2CN(c3ccc(C#N)c4ncccc34)C[C@@H](C)O2)CC1 [ER-887724]", "% Suppression vs. Vehicle [%]": 99}
{"molecule": "C[C@@H]1CN(c2ccc(C#N)c3ncccc23)C[C@H](CNc2ccccn2)O1 [ER-886788]", "% Suppression vs. Vehicle [%]": 24}

Read the next record carefully.
Input line: Need % Suppression vs. Vehicle, item COc1cccnc1NC[C@H]1CN(c2ccc(C#N)c3ncccc23)C[C@@H](C)O1 [ER-886948]
Output line: 100

====

# Tested on: TLR7/8
# Construct: other: human PBMC; ligand SL4-Ig; individual donors 1-6; average of donors; ligand RNA40-DOTAP; individual donors; ligand R848; ligand R848
# experimental_protocol: Subsequent human PBMC assay, various TLR7/8 ligands, IL-6 and IFN-α blockade
# Assay type: cell-based
# test_conditions: read-out: IC50 IL-6, ligand R848, individual donors
quantity_name: IC50

Input line: # query: IC50 of entry CCN(CCO)CCCC(C)Nc1ccnc2cc(Cl)ccc12 (stereo not shown) [HCQ, hydroxychloroquine, reference compound]
Output line: > 10 µM

====

# tested_on: TLR9 (Homo sapiens, UniProt Q9NR96)
# Sequence (Q9NR96 26-1032): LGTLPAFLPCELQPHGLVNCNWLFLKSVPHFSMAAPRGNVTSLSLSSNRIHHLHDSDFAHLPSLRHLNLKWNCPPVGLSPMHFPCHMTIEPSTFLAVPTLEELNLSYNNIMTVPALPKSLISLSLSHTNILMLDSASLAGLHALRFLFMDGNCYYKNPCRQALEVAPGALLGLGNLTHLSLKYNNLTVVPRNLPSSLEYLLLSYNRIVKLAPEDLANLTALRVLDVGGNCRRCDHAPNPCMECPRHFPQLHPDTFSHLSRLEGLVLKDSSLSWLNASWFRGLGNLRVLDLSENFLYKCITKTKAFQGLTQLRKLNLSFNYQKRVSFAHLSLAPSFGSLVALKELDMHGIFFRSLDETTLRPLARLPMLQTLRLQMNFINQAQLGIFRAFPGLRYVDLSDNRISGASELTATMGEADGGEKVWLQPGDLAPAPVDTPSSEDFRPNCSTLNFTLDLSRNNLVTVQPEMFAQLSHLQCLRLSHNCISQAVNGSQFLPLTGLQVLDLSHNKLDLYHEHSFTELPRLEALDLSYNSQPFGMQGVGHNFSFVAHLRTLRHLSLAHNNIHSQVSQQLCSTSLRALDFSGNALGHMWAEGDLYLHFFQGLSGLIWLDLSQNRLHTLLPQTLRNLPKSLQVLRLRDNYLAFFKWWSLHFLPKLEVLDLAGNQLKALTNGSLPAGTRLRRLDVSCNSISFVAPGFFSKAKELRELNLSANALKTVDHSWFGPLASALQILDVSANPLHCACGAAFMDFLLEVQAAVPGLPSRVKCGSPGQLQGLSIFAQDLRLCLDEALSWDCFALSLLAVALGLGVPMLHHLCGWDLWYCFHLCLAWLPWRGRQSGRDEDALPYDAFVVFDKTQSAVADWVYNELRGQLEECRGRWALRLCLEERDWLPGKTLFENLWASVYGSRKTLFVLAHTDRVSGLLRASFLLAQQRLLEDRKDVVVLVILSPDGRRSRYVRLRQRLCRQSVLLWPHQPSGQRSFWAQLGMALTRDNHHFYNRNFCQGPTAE
# experimental_protocol: Subsequent human PBMC assay, DNA-mediated activation of TLR9, IL-6 and IFN-α
# Type: cell-based
# test_conditions: IC50 IL-6 Ave., human PBMC; ligand ODN2006-DOTAP; average of donors
quantity_name: IC50

Input line: // returns reported IC50 for input C[C@@H]1CN(c2ccc(C#N)c3ncccc23)C[C@H](C(=O)N[C@H]2CNC[C@H]2F)O1.Cl [ER-899742, hydrochloride]
Output line: > 10 µM

====

# tested_on: TLR9 (Homo sapiens)
# experimental_protocol: Subsequent human PBMC assay, DNA-mediated activation of TLR9, IL-6 and IFN-α
# Assay type: cell-based
# test_conditions: human PBMC; ligand ODN2216-Ig; average of donors; read-out: IC50 IL-6 Ave.
quantity_name: IC50 (nM)
// note: answer is a bare numeric in nM

Input line: Fill in the blank: the reported IC50 of CCN(CCO)CCCC(C)Nc1ccnc2cc(Cl)ccc12 (stereo not shown) [HCQ, hydroxychloroquine, reference compound] is ____.
Output line: 2380

====

Item-by-item account of pIC50
# Test system: TLR7/8
# Construct: other: human PBMC; ligand SL4-Ig; individual donors 1-6; average of donors; ligand RNA40-DOTAP; individual donors; ligand R848; ligand
# experimental_protocol: Subsequent human PBMC assay, various TLR7/8 ligands, IL-6 and IFN-α blockade
# Assay type: cell-based
# test_conditions: read-out: IC50 IFN-α Ave., ligand RNA40-DOTAP, average of donors
# Method: Human PBMC Cell-Based Assay. […] Antagonist compounds solubilized and serial diluted in 100% DMSO were added in triplicate to cells to yield a final concentration of 0.1% DMSO (v/v). […] Cell culture supernatants were collected, and levels of various human cytokines were assessed as indicated by standard ELISA procedure according to the manufacturer's recommended protocol (BD Biosciences, Inc., San Diego, Calif.). […]
pIC50 here: minus log base 10 of the concentration, concentration in moles per litre.

{"compound": "C[C@@H]1CN(c2ccc(C#N)c3ncccc23)C[C@H](C(=O)N[C@H]2CNC[C@H]2F)O1.Cl [ER-899742, hydrochloride]", "test_result": 7.86}

Please look at the following compound next.
Input line: Hi! What's the reported pIC50 for CCN(CCO)CCCC(C)Nc1ccnc2cc(Cl)ccc12 (centres unmarked) [HCQ, hydroxychloroquine, reference compound] on TLR7/8?
Output line: 6.22

====

Known % Suppression vs. Vehicle of a selection of compounds
# tested_on: mouse TLR7 (Mus musculus)
# experimental_protocol: Short-term in vivo (STIV) assay: oral dosing, R848 s.c., plasma IL-6
# Parameters: female BALB/c mice (Jackson Labs, Bar Harbor, Me.) were dosed by oral gavage; tissue Jackson Labs; host or cells: living female BALB/c mice; plasma IL-6 after s.c. R848
# test_conditions: 13 h; 100 mg/kg
State just the number; it will be interpreted in %.

// solved cases for % Suppression vs. Vehicle follow
{"compound": "CC1CN(c2ccc(C#N)c3ncccc23)CC(C(=O)NCC(C)(C)N(C)C)O1 (stereo not drawn)", "quantity_name": "% Suppression vs. Vehicle", "test_result": 86}
{"compound": "CC1CN(c2ccc(C#N)c3ncccc23)CC(C(=O)NC2CNCCC2F)O1.Cl (mixture of isomers)", "quantity_name": "% Suppression vs. Vehicle", "test_result": 68}

Please look at the following compound next.
Input line: Sample "CNCC1CN(C(=O)[C@H]2CN(c3ccc(C#N)c4ncccc34)C[C@@H](C)O2)C1" — what was its % Suppression vs. Vehicle?
Output line: 12

====

# tested_on: UniProtKB P58681
# experimental_protocol: Short-term in vivo (STIV) assay: oral dosing, R848 s.c., plasma IL-6
# Set-up: female BALB/c mice (Jackson Labs, Bar Harbor, Me.) were dosed by oral gavage; tissue Jackson Labs; host or cells: living female BALB/c mice; plasma IL-6 after s.c. R848
# test_conditions: 13 h; 300 mg/kg
quantity_name: % Suppression vs. Vehicle (%)
Dear colleague, please return just the value in %, with no unit written.

{"compound": "CC1CN(c2ccc(C#N)c3ncccc23)CC(C(=O)NCC(C)(C)N(C)C)O1 (stereo not drawn) [ER-898566]", "quantity_name": "% Suppression vs. Vehicle", "test_result": 98}
{"compound": "CCNC(=O)C1CN(c2ccc(C#N)c3ncccc23)CC(C)O1 (stereo not drawn) [ER-894550]", "quantity_name": "% Suppression vs. Vehicle", "test_result": 99}

Okay, now this compound:
Input line: Param readout = % Suppression vs. Vehicle; param system = UniProtKB P58681; param query = CC[C@H]1CN(C[C@H]2CN(c3ccc(C#N)c4ncccc34)C[C@@H](C)O2)CCN1 [ER-890963] ; response: value
Output line: 100

====

# key: entry, value: % Suppression vs. Vehicle
# tested_on: mouse TLR7 (Mus musculus, UniProt P58681)
# experimental_protocol: Short-term in vivo (STIV) assay: oral dosing, R848 s.c., plasma IL-6
# Set-up: female BALB/c mice (Jackson Labs, Bar Harbor, Me.) were dosed by oral gavage; tissue Jackson Labs; host or cells: living female BALB/c mice; plasma IL-6 after s.c. R848
# test_conditions: 19 h; 300 mg/kg
Give the value in % but do not write % after it.

Example cases with answers are listed next.
{"entry_smiles": "Cc1cc(CO)cc(-c2ccc(C#N)c3ncccc23)c1", "% Suppression vs. Vehicle, %": 79}
{"entry_smiles": "C[C@@H]1CN(c2ccc(C#N)c3ncccc23)C[C@H](CNc2ccccn2)O1", "% Suppression vs. Vehicle, %": 2}
{"entry_smiles": "C[C@@H]1CN(c2ccc(C#N)c3ncccc23)C[C@H](CN2CCN(C)CC2)O1", "% Suppression vs. Vehicle, %": 100}
{"entry_smiles": "C[C@@H]1CN(c2ccc(C#N)c3ncccc23)C[C@H](CN2CCC(N3CCCCC3)CC2)O1", "% Suppression vs. Vehicle, %": 100}
{"entry_smiles": "CCCN1CCN(C[C@H]2CN(c3ccc(C#N)c4ncccc34)C[C@@H](C)O2)CC1", "% Suppression vs. Vehicle, %": 99}

Input line: # query: % Suppression vs. Vehicle of entry "C[C@@H]1CN(C[C@H]2CN(c3ccc(C#N)c4ncccc34)C[C@@H](C)O2)CCN1"
Output line: 95

Input line: Fill in the blank: the reported % Suppression vs. Vehicle of "C[C@@H]1CN(c2ccc(C#N)c3ncccc23)C[C@H](CN2CC[C@H](O)C2)O1" is ____.
Output line: 39

Input line: What value of % Suppression vs. Vehicle has been recorded for this entry: "C[C@@H]1CN(c2ccc(C#N)c3ncccc23)C[C@H](CN2CCC(N)CC2)O1"
Output line: 99

Input line: For the compound shown here, "CC(C)N1CCN(C[C@H]2CN(c3ccc(C#N)c4ncccc34)C[C@@H](C)O2)CC1" , give the reported % Suppression vs. Vehicle.
Output line: 100
